# Tested on: MCF-7 cells stably expressing EF1 HA-ER-α wild-type
# protocol description: MCF-7 Stable Cell Line Viability (EF1 HA-ER-α series)
# Format: cell-based
# condition details: Homo sapiens, MCF7, read-out: Potency (EC50; nM), EF1 HA-ER-α Wild-type; Antagonist Mode; +E2
Listed here are compounds together with their documented EC50.
Write the number in nM without appending the unit.

>  <compound>
C[C@]12CC[C@@H]3c4ccc(O)cc4C[C@@H](CCCCCCCCC[S+]([O-])CCCC(F)(F)C(F)(F)F)[C@H]3[C@@H]1CC[C@@H]2O (some centres unmarked)

>  <measured target>
MCF-7 cells stably expressing EF1 HA-ER-α wild-type

>  <measurement units>
nM

>  <EC50>
3.97

$$$$

Now for a further compound.
Request: Respond only with EC50 recorded for `CC1=C(c2cccc(O)c2)[C@H](c2ccc(OCCN3CC(CF)C3)cc2)Oc2ccc(O)cc21`
Result: 8.65
